- experimentalTarget: GSK3b (GST-full length GSK3b) (Homo sapiens)
- Construct: GST-full length GSK3b: [SignalChem G08-9G]; purchased SignalChem G08-9G
- assayName: GSK3b TR-FRET kinase inhibition assay
- Format: biochemical
- testContext: 1 mM ATP; Table 5; read-out: GSK3β TR-FRET 1 mM ATP Average IC50
List of IC50 values.

Here's what some known entries look like.
INSERT INTO measurements (compound, measvalue) VALUES
  ('C=Cc1c(C(F)(F)F)cnc2c1C(C)(c1ccccc1)C1=C(CC(C)(C)CC1=O)N2 (single isomer, unassigned) [636B]', '1 to 5 µM'),
  ('CC1(C)CC(=O)C2=C(Nc3ncc(C(F)F)c(C#N)c3[C@@]2(C)c2ccccc2)[C@H]1F (single isomer, unassigned) [Compound 633D]', '0.1 to 1 µM'),
  ('CC1(C)CC(=O)C2=C(C1)Nc1ncc(F)cc1C2(C)c1cccc(-c2ccncc2CC(F)(F)F)c1 (single isomer, unassigned) [653B]', '≤ 0.1 µM');

Item CN(C)c1cnc2c(c1C#N)C(C)(c1ccccc1)C1=C(CC(C)(C)CC1=O)N2 (single isomer, unassigned) [624A] with GSK3b (GST-full length GSK3b) (Homo sapiens) - IC50?
5 to 20 µM

Would you kindly repeat that for CC1(C)CC(=O)C2=C(C1)Nc1ncc(C(C)(F)F)c(C#N)c1C2(C)c1ccccc1 (single isomer, unassigned) [631A] ?
5 to 20 µM

Would you kindly repeat that for CC(C)Oc1cccc(C2(C)C3=C(CC(C)(C)CC3=O)Nc3ncc4c(cnn4C)c32)c1 (single isomer, unassigned) [645A] ?
5 to 20 µM

* * *

- experimentalTarget: GSK3b (GST-full length GSK3b) (Homo sapiens, UniProt P49841)
- Construct: GST-full length GSK3b: [SignalChem G08-9G]; purchased SignalChem G08-9G
- Sequence (P49841 whole entry): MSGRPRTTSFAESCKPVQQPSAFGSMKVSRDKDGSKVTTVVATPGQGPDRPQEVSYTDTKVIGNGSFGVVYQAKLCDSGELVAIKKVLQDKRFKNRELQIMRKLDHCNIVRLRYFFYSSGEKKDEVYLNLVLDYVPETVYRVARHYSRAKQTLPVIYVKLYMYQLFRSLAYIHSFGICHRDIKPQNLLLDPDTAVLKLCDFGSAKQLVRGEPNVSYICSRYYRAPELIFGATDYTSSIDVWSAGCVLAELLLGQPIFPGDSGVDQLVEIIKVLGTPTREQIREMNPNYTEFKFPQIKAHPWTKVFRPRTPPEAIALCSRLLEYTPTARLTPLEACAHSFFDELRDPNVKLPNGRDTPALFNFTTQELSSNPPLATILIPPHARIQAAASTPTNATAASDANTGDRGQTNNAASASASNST
- assayName: GSK3b TR-FRET kinase inhibition assay
- Assay type: biochemical
- testContext: 1 mM ATP; Table 3; read-out: GSK3b TR-FRET 1 mM ATP Average IC50
pIC50: −log10 of the molar value.
quantityKind: pIC50

Which value of pIC50 has been reported for CCc1ccnc2c1C(C)(c1ccccc1)C1=C(CC(C)(C)CC1=O)N2 (single isomer, unassigned) [Compound 112A] in the records?
5.30 to 6.00

Would you kindly repeat that for CC(C)(C)Cc1cnc2c(c1)C(C)(c1ccccc1)C1=C(CC(C)(C)CC1=O)N2 (single isomer, unassigned) [Compound 129B] ?
4.70 to 5.30

Would you kindly repeat that for Cc1c(F)cnc2c1C(C)(c1cccc(S(C)(=O)=O)c1)C1=C(CC(C)(C)CC1=O)N2 (single isomer, unassigned) [Compound 144B] ?
4.70 to 5.30

* * *

- Tested on: MDR1-MDCK cell monolayers
- assayName: MDR1/MDCK permeability assay
- Type: in vitro ADME
- testContext: Papp B-A/A-B; Table 3
List of MIDCK Permeability (MDR1-MDCK); Mean; P. Ratio(B-A/A-B) Efflux Ratio values.
Answer using only a numeral; do not append any unit.

Here's what some known entries look like.
INSERT INTO measurements (compound, measvalue) VALUES
  ('CCC1(c2cccc(-c3c(C)nn(C)c3C)c2)C2=C(CC(C)(C)CC2=O)Nc2ncccc21 (single isomer, unassigned) [Compound 150A]', 0.93),
  ('CC1(C)CC(=O)C2=C(C1)Nc1nccc(C(F)(F)F)c1C2(C)c1ccccc1 (single isomer, unassigned) [Compound 127A]', 0.50),
  ('CC(C)(C)Cc1ccnc2c1C(C)(c1ccccc1)C1=C(CC(C)(C)CC1=O)N2 (single isomer, unassigned) [Compound 130A]', 0.48);

Item CC(C)(C)Cc1ccnc2c1C(C)(c1ccccc1)C1=C(CC(C)(C)CC1=O)N2 (single isomer, unassigned) [Compound 130B] with MDR1-MDCK cell monolayers - MIDCK Permeability (MDR1-MDCK); Mean; P. Ratio(B-A/A-B) Efflux Ratio?
0.60

* * *

- experimentalTarget: GSK3b (GST-full length GSK3b) (Homo sapiens)
- Construct: GST-full length GSK3b: [SignalChem G08-9G]; purchased SignalChem G08-9G
- assayName: GSK3b TR-FRET kinase inhibition assay
- Format: biochemical
- testContext: 1 mM ATP; Table 4; read-out: GSK3β TR-FRET 1 mM ATP GMean IC50
- Method: TR-FRET assay was performed in a white, 384 well, low volume, flat bottom plate (Grenier). After a 30 minute preincubation in assay buffer with the indicated concentration of compound, the kinase activity was initiated by the addition of the substrates. […] After 60 min at room temperature the plate was read on Envision plate reader using Ex: 340 nm, Em: 615 nm and […]. The normalized 665/615 Signal ratio versus log compound concentration was analyzed by XLFIT to yield IC50 values.
pIC50: −log10 of the molar value.
List of pIC50 values.

INSERT INTO measurements (compound, quantitykind, measvalue) VALUES
  ('CCC1(c2cccc(-c3cncn3C(C)C)c2)C2=C(CC(C)(C)CC2=O)Nc2ncccc21 (single isomer, unassigned) [Compound 149A]', 'pIC50', '6.00 to 7.00'),
  ('CCC1(c2ccccc2)C2=C(CC3(CCC3)CC2=O)Nc2ncc(F)cc21 (single isomer, unassigned) [Compound 1008A]', 'pIC50', '5.30 to 6.00'),
  ('CCC1(c2cccc(-c3ccnc(C)c3C)c2)C2=C(CC(C)(C)CC2=O)Nc2ncccc21 (single isomer, unassigned)', 'pIC50', '5.30 to 6.00');

Which value of pIC50 has been reported for CCC1(c2cccc(-c3c(C)nn(C)c3C)c2)C2=C(CC(C)(C)CC2=O)Nc2ncccc21 (single isomer, unassigned) [Compound 150B] in the records?
5.30 to 6.00

Would you kindly repeat that for CCC1(c2cccc(-c3ccnc4c3CCCC4)c2)C2=C(CC(C)(C)CC2=O)Nc2ncc(F)cc21 (single isomer, unassigned) [Compound 165B] ?
6.00 to 7.00

Would you kindly repeat that for CCC1(c2ccccc2)C2=C(CC(C)(C)NC2=O)Nc2ncc(F)cc21 (single isomer, unassigned) [Compound 1007B] ?
4.70 to 5.30

* * *

- experimentalTarget: GSK3a (GST-full length GSK3a) (Homo sapiens, UniProt P49840)
- Construct: GST-full length GSK3a [SignalChem G08-10G]; purchased SignalChem G08-10G
- Sequence (P49840 whole entry): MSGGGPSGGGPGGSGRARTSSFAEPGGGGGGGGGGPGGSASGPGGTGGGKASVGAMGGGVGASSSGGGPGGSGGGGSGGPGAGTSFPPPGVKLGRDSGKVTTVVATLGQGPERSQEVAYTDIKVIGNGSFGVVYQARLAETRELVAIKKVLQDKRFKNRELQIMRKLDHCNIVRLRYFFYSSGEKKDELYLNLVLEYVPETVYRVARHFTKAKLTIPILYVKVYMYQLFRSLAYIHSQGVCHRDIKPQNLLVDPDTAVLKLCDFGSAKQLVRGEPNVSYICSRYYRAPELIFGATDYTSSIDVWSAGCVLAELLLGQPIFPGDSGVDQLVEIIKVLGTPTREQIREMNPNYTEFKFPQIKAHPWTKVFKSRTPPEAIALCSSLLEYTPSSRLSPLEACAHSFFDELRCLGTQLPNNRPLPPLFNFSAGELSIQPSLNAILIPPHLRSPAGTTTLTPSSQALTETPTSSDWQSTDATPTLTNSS
- assayName: GSK3a TR-FRET kinase inhibition assay
- Assay type: biochemical
- testContext: 4 μM ATP; read-out: GSK3α TR-FRET 4 μM ATP GMean IC50
- Experimental: TR-FRET assay was performed in a white, 384 well, low volume, flat bottom plate (Grenier). After a 30 minute preincubation in assay buffer with the indicated concentration of compound, the kinase activity was initiated by the addition of the substrates. […] After 60 min at room temperature the plate was read on Envision plate reader using Ex: 340 nm, Em: 615 nm and […]. The normalized 665/615 Signal ratio versus log compound concentration was analyzed by XLFIT to yield IC50 values.
pIC50: −log10 of the molar value.
quantityKind: pIC50

Here's what some known entries look like.
INSERT INTO assay_data (compound, quantitykind, measvalue) VALUES
  ('CCC1(c2cccc(-c3c(F)cncc3OC)c2)C2=C(CC(C)(C)CC2=O)Nc2ncccc21 (single isomer, unassigned) [Compound 154A]', 'pIC50', '< 5.30'),
  ('CCC1(c2cccc(-c3c(F)cncc3OC)c2)C2=C(CC(C)(C)CC2=O)Nc2ncc(F)cc21 (single isomer, unassigned) [Compound 161A]', 'pIC50', '6.00 to 7.00'),
  ('CCC1(c2cccc(-c3ccnn3C)c2)C2=C(CC(C)(C)CC2=O)Nc2ncc(F)cc21 (single isomer, unassigned) [Compound 1025A]', 'pIC50', '≥ 7.00'),
  ('CCC1(c2cccc(-c3cc(C)nn3C)c2)C2=C(CC(C)(C)CC2=O)Nc2ncccc21 (single isomer, unassigned) [Compound 1024A]', 'pIC50', '5.30 to 6.00'),
  ('CCC1(c2cccc(O)c2)C2=C(CC(C)(C)CC2=O)Nc2ncc(F)cc21 (single isomer, unassigned) [Compound 1010A]', 'pIC50', '< 5.30');

// next item, pIC50 requested
Item CCC1(c2cccc(-c3ccncc3)c2)C2=C(CC(C)(C)CC2=O)Nc2ncccc21 (single isomer, unassigned) [Compound 1017B] with GSK3a (GST-full length GSK3a) (Homo sapiens, UniProt P49840) - pIC50?
< 5.30

* * *

- experimentalTarget: GSK3b (GST-full length GSK3b) (Homo sapiens, UniProt P49841)
- Construct: GST-full length GSK3b: [SignalChem G08-9G]; purchased SignalChem G08-9G
- assayName: GSK3b TR-FRET kinase inhibition assay
- Assay type: biochemical
- testContext: 1 mM ATP; Table 5; read-out: GSK3β TR-FRET 1 mM ATP Average IC50
quantityKind: IC50

INSERT INTO assay_data (compound, quantitykind, measvalue) VALUES
  ('CC1(C)CC(=O)C2=C(C1)Nc1ncccc1C2(C)c1cccc(N(CC2CC2)c2ncccn2)c1 (single isomer, unassigned) [652A]', 'IC50', '5 to 20 µM');

Item CN1C(=O)C2=C(CC1(C)C)Nc1ncc(F)c(C#N)c1C2(C)c1ccccc1 (single isomer, unassigned) [615B] with GSK3b (GST-full length GSK3b) (Homo sapiens, UniProt P49841) - IC50?
≤ 0.1 µM

Would you kindly repeat that for CC1(C)CC2=C(C(=O)N1)C(C)(c1ccccc1)c1c(ncc(F)c1C#N)N2 (single isomer, unassigned) [604B] ?
≤ 0.1 µM

Would you kindly repeat that for CC1(C)CC(=O)C2=C(C1)Nc1ncc(C(F)(F)F)cc1C2(C)c1cccc(C(F)F)c1 (single isomer, unassigned) [646A] ?
5 to 20 µM

Would you kindly repeat that for CC1(C)CC(=O)C2=C(Nc3ncc(C(F)F)c(C#N)c3[C@@]2(C)c2ccccc2)[C@@H]1F (single isomer, unassigned) [Compound 633B] ?
0.1 to 1 µM

Would you kindly repeat that for Cn1ncc2c3c(ncc21)NC1=C(C(=O)CC(C)(C)C1)C3(C)c1ccccc1 (single isomer, unassigned) [609B] ?
1 to 5 µM

Would you kindly repeat that for CCc1cnc2c(c1C#N)C(C)(c1ccccc1)C1=C(CC(C)(C)CC1=O)N2 (single isomer, unassigned) [608A] ?
1 to 5 µM

Would you kindly repeat that for CC1(C)CC(=O)C2=C(C1)Nc1ncc(C(C)(F)F)c(C#N)c1C2(C)c1ccccc1 (single isomer, unassigned) [631B] ?
5 to 20 µM

Would you kindly repeat that for CC1(C)CC(=O)C2=C(C1)Nc1ncccc1C2(C)c1cccc(N(CC2CC2)c2ncccn2)c1 (single isomer, unassigned) [652B] ?
5 to 20 µM

Would you kindly repeat that for Cc1cnc2c(c1C#N)C(C)(c1ccccc1)C1=C(CC(C)(C)CC1=O)N2 (single isomer, unassigned) [603B] ?
0.1 to 1 µM

Would you kindly repeat that for COc1cnc2c(c1C#N)C(C)(c1ccccc1)C1=C(CC(C)(C)CC1=O)N2 (single isomer, unassigned) [612B] ?
5 to 20 µM

Would you kindly repeat that for CC(C)c1cnc2c(c1C#N)C(C)(c1ccccc1)C1=C(CC(C)(C)CC1=O)N2 (single isomer, unassigned) [622A] ?
5 to 20 µM

Would you kindly repeat that for Cc1c(C2(C)C3=C(CC(C)(C)CC3=O)Nc3ncc(F)cc32)cccc1S(C)(=O)=O (single isomer, unassigned) [643A] ?
0.1 to 1 µM
